target: PTP EPSILON (Homo sapiens, UniProt P23469); construct: made in house; host or cells: Sf-9 insect cells (pFastBac-G2T); a pGEX 6P-1 construct also existed; assay: PTP IC50 assay, pNPP or FDP as substrate; assay type: biochemical; settings: pNPP or FDP as substrate, 25° C.; read-out: PTP IC50 Epilson
Sequence (P23469 80-393 limits assumed): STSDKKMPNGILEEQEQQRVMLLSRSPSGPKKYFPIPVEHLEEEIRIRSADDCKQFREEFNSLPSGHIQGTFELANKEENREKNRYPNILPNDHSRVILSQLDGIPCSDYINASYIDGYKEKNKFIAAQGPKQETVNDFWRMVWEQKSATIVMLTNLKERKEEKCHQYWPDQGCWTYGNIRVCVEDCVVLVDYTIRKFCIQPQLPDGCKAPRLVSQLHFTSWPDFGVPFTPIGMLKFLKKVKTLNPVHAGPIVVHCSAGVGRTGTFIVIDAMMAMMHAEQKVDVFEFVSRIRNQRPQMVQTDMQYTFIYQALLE
measured_metric: IC50

| molecule | IC50 |
| --- | --- |
| COC(=O)Cc1cc(Oc2ccc(S(=O)(=O)C(F)(F)F)cc2[N+](=O)[O-])cc(Oc2ccc(S(=O)(=O)C(F)(F)F)cc2[N+](=O)[O-])c1 [Example 10] | 60.8 µM |
| COC(=O)c1cc(Oc2ccc(S(=O)(=O)C(F)(F)F)cc2[N+](=O)[O-])cc(Oc2ccc(S(=O)(=O)C(F)(F)F)cc2[N+](=O)[O-])c1 [Example 11] | 38.7 µM |
| CC(C)(COc1ccc(NS(=O)(=O)C(F)(F)F)cc1)COc1ccc(NS(=O)(=O)C(F)(F)F)cc1 [Example 68] | 37 µM |
| O=S(=O)(Nc1ccc(OCCCCOc2ccc(NS(=O)(=O)C(F)(F)F)cc2)cc1)C(F)(F)F [Example 70] | 48.4 µM |
| O=C(O)Cc1ccccc1CC(=O)Nc1cccc(S(=O)(=O)C(F)(F)F)c1 [Example 27] | 3.8 µM |

Find the recorded IC50 belonging to CCOC(=O)c1cc(Oc2ccc(S(=O)(=O)C(F)(F)F)cc2[N+](=O)[O-])c(C(=O)OCC)cc1O [Example 26] and report it.
6.2 µM

Moving on to the next molecule: CN(C)CC(COc1ccc(S(=O)(=O)C(F)(F)F)cc1[N+](=O)[O-])Oc1ccc(S(=O)(=O)C(F)(F)F)cc1[N+](=O)[O-] (centres unmarked) [Example 24]
> 100 µM

Do the same for COC(=O)c1ccc(OCCOc2ccc(S(=O)(=O)C(F)(F)F)cc2[N+](=O)[O-])cc1 [Example 14] please
> 100 µM

Also check O=C(O)c1cc(Oc2ccc(S(=O)(=O)C(F)(F)F)cc2)cc(Oc2ccc(S(=O)(=O)C(F)(F)F)cc2)c1 [Example 31]
1.8 µM

* * *

Form field: IC50 (one value per entry).
target: PTP DEP1 (Homo sapiens, UniProt Q12913); construct: GST-fusion proteins encompassing the entire cytoplasmic domain was done by PCR; assay: PTP IC50 assay, pNPP or FDP as substrate; details: 25° C.
Sequence (Q12913 997-1337 limits assumed): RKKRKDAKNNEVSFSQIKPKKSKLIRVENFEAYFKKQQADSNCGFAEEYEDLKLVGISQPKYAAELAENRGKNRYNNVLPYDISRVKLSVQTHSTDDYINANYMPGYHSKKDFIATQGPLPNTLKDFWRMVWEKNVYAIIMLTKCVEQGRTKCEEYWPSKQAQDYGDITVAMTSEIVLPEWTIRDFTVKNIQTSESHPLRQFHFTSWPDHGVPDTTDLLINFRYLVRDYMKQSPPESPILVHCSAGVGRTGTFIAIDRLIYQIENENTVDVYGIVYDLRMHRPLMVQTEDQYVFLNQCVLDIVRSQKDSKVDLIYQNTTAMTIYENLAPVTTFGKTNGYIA
Quick reminder: number only, in µM, skip the unit.

| compound | unit_text | IC50 |
| --- | --- | --- |
| CC(C)(COc1ccc(NS(=O)(=O)C(F)(F)F)cc1)COc1ccc(NS(=O)(=O)C(F)(F)F)cc1 [Example 68] | µM | 25 |

Please examine the following record next.
So what IC50 did O=S(=O)(c1ccc(COCc2ccc(S(=O)(=O)C(F)(F)F)cc2)cc1)C(F)(F)F [Example 1] get with PTP DEP1 (Homo sapiens, UniProt Q12913)?
24.2

* * *

biological target: PTP EPSILON (Homo sapiens); construct: made in house; host or cells: Sf-9 insect cells (pFastBac-G2T); a pGEX 6P-1 construct also existed; test: PTP IC50 assay, fluorescent substrate DiFMUP; format: biochemical; details: DiFMUP as substrate, 25° C.; read-out: PTP IC50 Epilson
Here the recorded pIC50 is given for each entry.
Please report pIC50 as the negative decimal logarithm of the molar concentration, giving only the number.

// worked examples, pIC50 included
| molecule | experimental_target | measured_metric | observed_measurement |
| --- | --- | --- | --- |
| CCn1c(-c2ccc(C(=O)O)cc2)nc2cc(S(=O)(=O)C(F)(F)F)ccc21 [Example 36] | PTP EPSILON (Homo sapiens) | pIC50 | 4.21 |
| CCCCNC(=O)C(c1ccc(S(=O)(=O)C(F)(F)F)cc1)N(Cc1ccccc1)C(=O)c1ccccc1 (centres unmarked) [Example 44] | PTP EPSILON (Homo sapiens) | pIC50 | 4.72 |
| CCn1c(-c2ccc(C(=O)Nc3ccncc3)cc2)nc2cc(S(=O)(=O)C(F)(F)F)ccc21 [Example 37] | PTP EPSILON (Homo sapiens) | pIC50 | 4.69 |

Here's the next entry for you.
# pIC50 lookup, item CCn1c(-c2ccc(C(=O)OC)cc2)nc2cc(S(=O)(=O)C(F)(F)F)ccc21 [Example 35]
4.49

* * *

Parameter IC50: see the listing below.
molecular target: PTP MU (Homo sapiens, UniProt P28827); construct: made in house; host or cells: E. coli BL-21 (pGEX 6P-1); test: PTP IC50 assay, pNPP or FDP as substrate; format: biochemical; conditions: pNPP or FDP as substrate, 25° C.; read-out: PTP IC50 Mu
Sequence (P28827 831-1186 limits assumed): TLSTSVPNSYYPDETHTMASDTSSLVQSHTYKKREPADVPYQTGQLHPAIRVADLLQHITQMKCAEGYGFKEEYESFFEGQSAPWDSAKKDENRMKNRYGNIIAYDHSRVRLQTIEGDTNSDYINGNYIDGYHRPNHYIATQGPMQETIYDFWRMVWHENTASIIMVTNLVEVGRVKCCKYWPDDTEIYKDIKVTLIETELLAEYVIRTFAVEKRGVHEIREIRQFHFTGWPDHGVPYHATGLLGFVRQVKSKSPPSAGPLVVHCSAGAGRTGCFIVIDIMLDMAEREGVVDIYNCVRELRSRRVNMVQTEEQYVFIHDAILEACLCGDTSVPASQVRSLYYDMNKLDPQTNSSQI
Kindly provide the numeric value in µM only, without the unit symbol.

Which IC50 reading was recorded for the molecule O=S(=O)(Nc1ccc(OCCCCOc2ccc(NS(=O)(=O)C(F)(F)F)cc2)cc1)C(F)(F)F [Example 70] ?
65.3

Now try O=C(Cc1cccc(CC(=O)Nc2cccc(S(=O)(=O)C(F)(F)F)c2)c1)Nc1cccc(S(=O)(=O)C(F)(F)F)c1 [Example 21] .
47.7

# repeat for O=S(=O)(Nc1ccc(-c2nnc(-c3ccc(NS(=O)(=O)C(F)(F)F)cc3)o2)cc1)C(F)(F)F [Example 75]
32.4

Input O=[N+]([O-])c1cc(S(=O)(=O)C(F)(F)F)ccc1Oc1cc(CN2CCOCC2)c(Oc2ccc(S(=O)(=O)C(F)(F)F)cc2[N+](=O)[O-])cc1CN1CCOCC1 [Example 23]
18.3

* * *

target: PTP SHP2 (Homo sapiens, UniProt Q06124); construct: The catalytic domain was amplified using the following oligonucleotides; made in house; host or cells: Sf-9 insect cells (pFastBac-G2T); test: PTP IC50 assay, fluorescent substrate DiFMUP; assay type: biochemical; conditions: DiFMUP as substrate, 25° C.; read-out: PTP IC50 SHP2
Mark yes for IC50 under 8 µM, no if at or over.

| molecule | label_class |
| --- | --- |
| Cc1cc2cc(NS(=O)(=O)C(F)(F)F)ccc2n1CC(=O)O | no |

Does the reported IC50 of the following molecule sit strictly below 8 µM? `CCn1c(-c2ccc(C(=O)Nc3ccncc3)cc2)nc2cc(S(=O)(=O)C(F)(F)F)ccc21`
no

Further, for O=[N+]([O-])c1cc(S(=O)(=O)C(F)(F)F)ccc1OCC(CN1CCCCC1)Oc1ccc(S(=O)(=O)C(F)(F)F)cc1[N+](=O)[O-] (stereo not shown) ?
yes

Next molecule: NS(=O)(=O)c1ccc(NCC(O)COc2ccc(S(=O)(=O)C(F)(F)F)cc2[N+](=O)[O-])cc1 (stereo not shown)
yes

What would you report for `CCOC(=O)c1cc2cc(N(S(=O)(=O)C(F)(F)F)S(=O)(=O)C(F)(F)F)ccc2n1CC(=O)O` ?
no

Please do the same for CCOC(=O)CNC(=O)C(c1ccc(S(=O)(=O)C(F)(F)F)cc1)N(C(C)=O)C1CCCCC1 (stereo not shown) as well.
no

CCOC(=O)CNC(=O)C(c1ccc(S(=O)(=O)C(F)(F)F)cc1)N(C)C(C)=O (stereo not shown) , same question.
no

* * *

biological target: PTP 1B (Homo sapiens); construct: made in house; host or cells: Sf-9 insect cells (pFastBac-G2T); experiment: PTP IC50 assay, pNPP or FDP as substrate; type: biochemical; conditions: comparison of R groups; read-out: IC50 1B
Sequence (P18031 whole entry): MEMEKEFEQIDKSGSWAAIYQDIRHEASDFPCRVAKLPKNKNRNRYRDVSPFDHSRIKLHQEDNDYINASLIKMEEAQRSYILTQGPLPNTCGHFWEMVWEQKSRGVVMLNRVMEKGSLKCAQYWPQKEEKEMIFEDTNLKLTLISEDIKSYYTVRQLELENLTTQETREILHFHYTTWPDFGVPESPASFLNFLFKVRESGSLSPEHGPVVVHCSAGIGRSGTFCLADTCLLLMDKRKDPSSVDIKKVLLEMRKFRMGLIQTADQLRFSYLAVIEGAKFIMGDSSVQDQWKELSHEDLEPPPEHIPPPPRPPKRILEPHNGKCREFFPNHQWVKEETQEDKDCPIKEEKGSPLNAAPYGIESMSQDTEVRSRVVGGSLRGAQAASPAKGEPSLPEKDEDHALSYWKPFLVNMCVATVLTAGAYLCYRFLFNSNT
Listed molecules paired with reported pIC50
Schema: pIC50 number; meaning minus log10 of the concentration expressed in molar units.

| input_smiles | experimental_target | observed_measurement |
| --- | --- | --- |
| O=S(=O)(Nc1ccc(Oc2ccc(Oc3ccc(NS(=O)(=O)C(F)(F)F)cc3)cc2)cc1)C(F)(F)F | PTP 1B (Homo sapiens) | 4.97 |

Please provide the recorded pIC50 for `CS(=O)(=O)Nc1ccc(Oc2ccc(Oc3ccc(NS(C)(=O)=O)cc3)cc2)cc1` , tested on PTP 1B (Homo sapiens).
4.28

* * *

Molecular target: PTP SHP2 (Homo sapiens, UniProt Q06124)
Construct: The catalytic domain was amplified using the following oligonucleotides; made in house; host or cells: Sf-9 insect cells (pFastBac-G2T)
Sequence (Q06124 247-517 limits assumed): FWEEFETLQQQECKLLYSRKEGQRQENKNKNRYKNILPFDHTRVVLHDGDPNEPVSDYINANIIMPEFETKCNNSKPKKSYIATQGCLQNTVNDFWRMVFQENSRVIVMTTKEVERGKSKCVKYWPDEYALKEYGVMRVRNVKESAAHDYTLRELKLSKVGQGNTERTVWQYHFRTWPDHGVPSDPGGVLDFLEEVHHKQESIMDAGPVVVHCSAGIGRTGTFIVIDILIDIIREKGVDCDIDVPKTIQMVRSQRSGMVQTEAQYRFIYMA
Experiment: PTP IC50 assay, fluorescent substrate DiFMUP
Assay type: biochemical
Conditions: DiFMUP as substrate, 25° C.; read-out: PTP IC50 SHP2
pIC50: −log10 of the molar value.
Please note: true (1) applies when pIC50 is 5 or greater, and false (0) applies otherwise.

Tell me whether pIC50 is at least 5 here: `Cn1c(C(=O)Nc2ccccc2)cc2cc(NS(=O)(=O)C(F)(F)F)ccc21`
false (0)

Another compound to look at: CCOC(=O)CNC(=O)C(c1ccc(S(=O)(=O)C(F)(F)F)cc1)N(C(C)=O)C1CC1 (centres unmarked)
false (0)

Same question, `Cc1cc2cc(NS(=O)(=O)C(F)(F)F)ccc2n1CC(=O)Nc1cccc(C(=O)O)c1` this time
false (0)

Lookup `O=S(=O)(c1ccc(-c2ncc(-c3ccc4ccccc4c3)o2)cc1)C(F)F`
true (1)

// repeat for `CN(Cc1ccc2cc(C(=O)Nc3cccc(C(=O)O)c3)ccc2c1)S(=O)(=O)C(F)(F)F` and report
false (0)

Queued: `O=C(Cc1ccc(CC(=O)Nc2ccc(S(=O)(=O)C(F)(F)F)cc2)cc1)Nc1ccc(S(=O)(=O)C(F)(F)F)cc1`
true (1)
